Data provenance is paper PMC5358875.

Target: T1, human tankyrase 2 ankyrin repeat cluster 4 (TNKS2 ARC4, residues 488-649) (human, UniProt Q9H2K2 488-649)
T1 sequence (looked up): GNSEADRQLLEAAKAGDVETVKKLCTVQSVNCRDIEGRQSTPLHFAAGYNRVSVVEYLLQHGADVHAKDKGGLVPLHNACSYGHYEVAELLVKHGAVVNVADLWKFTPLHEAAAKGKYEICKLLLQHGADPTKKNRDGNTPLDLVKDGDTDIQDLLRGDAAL
Test: fluorescence polarisation; direct: TNKS2 ARC4 or TNKS1 ARC2-3 diluted 2-fold serially (40-0 uM, 50 uL) and mixed with TAMRA-labeled peptide (20 nM, 50 uL); 50 mM HEPES pH 7.5, 300 mM NaCl, 2 mM DTT, 0.05% Tween 20; 30 min, 25 C
Settings: both partners purified
Bridge positions count the residues as written; N and C are the ends. Square brackets hold non-standard residues; d marks the D form. Ends that are not written are not given here. * marks the point of attachment. 5‑TAMRA = CN(C)c1ccc2c(-c3ccc(C(=O)*)cc3C(=O)[O-])c3ccc(N(C)C)cc3[o+]c2c1; n3 = azido unnatural amino acid, 3 CH2 in side chain; Dap(N3) = [N-]=[N+]=NC[C@H](N)C(=O)O; Aha = [N-]=[N+]=NCC[C@H](N)C(=O)O; m3c = not defined here; m3 = not defined here; m4 = not defined here; m5 = not defined here; Ahx = NCCCCCC(=O)O
Let's look at some binders and their measured Kd.
# unit: µM | format: bare number

Take a look at these entries with their results.
{"binder": "{5‑TAMRA-Ahx}-RE[n3]GDG[Aha]E (triazole 3-7 via m4; reading uncertain) [T-cp4n32m4]", "Kd (µM)": 11.1}
{"binder": "{5‑TAMRA-Ahx}-RE[Dap(N3)]GDG[Aha]E (triazole 3-7 via m5; reading uncertain) [T-cp4n12m5]", "Kd (µM)": 7.7}
{"binder": "{5‑TAMRA-Ahx}-RE[Dap(N3)]GDG[Aha]E (triazole 3-7 via m3; reading uncertain) [T-cp4n12m3]", "Kd (µM)": 12.5}
{"binder": "{5‑TAMRA-Ahx}-RE[n3]GDG[Aha]E (triazole 3-7 via m3; reading uncertain) [T-cp4n32m3]", "Kd (µM)": 6.1}
{"binder": "{5‑TAMRA-Ahx}-RE[Aha]GDG[Dap(N3)]E (triazole 3-7 via m5; reading uncertain) [T-cp4n21m5]", "Kd (µM)": 13.6}
{"binder": "{5‑TAMRA-Ahx}-RE[n3]GDG[Aha]E (triazole 3-7 via m3c; reading uncertain) [T-cp4n32m3c]", "Kd (µM)": 15.3}
{"binder": "{5‑TAMRA-Ahx}-RE[Aha]GDG[Dap(N3)]E (triazole 3-7 via m4; reading uncertain) [T-cp4n21m4]", "Kd (µM)": 5.8}
{"binder": "{5‑TAMRA-Ahx}-RE[n3]GDG[n3]E (bridge 3-7; not fully specified (bridges)) [T-cp4n3m3c]", "Kd (µM)": 15.4}

Req: Please look up its Kd: {5‑TAMRA-Ahx}-RE[n3]GDG[Aha]E (triazole 3-7 via m5; reading uncertain) [T-cp4n32m5]
Resp: 4.2

Req: Report Kd for {5‑TAMRA-Ahx}-RE[Aha]GDG[Aha]E (triazole 3-7 via m5; reading uncertain) [T-cp4n2m5] please.
Resp: 1.3
